- Tested on: EMT-6 mouse mammary tumor cells
- Method: In vitro cytotoxicity screen (colony formation)
- Type: cell-based
- Assay conditions: Mus musculus, EMT6, 1 h, Normal oxygenation; 1 hour drug exposure at 37° C.; EMT-6 colony formation
Kindly state IC50 for each of the entries shown.
Give just the number in µM; leave the unit off.

Give a short answer stating reported IC50 for O=C1C=C(N2CC2)C(N2CC2)=CC1=O . 0.4

Give a short answer stating reported IC50 for COC1=CC(=O)C(=O)C=C1NCCCl . 125

====

- System: L1210 leukemia
- Method: In vivo antitumor test, L1210 leukemia implanted i.p. in DBA mice
- Assay conditions: 2.50 mg/kg i.p. daily on days 1-5; vs untreated controls
Test readout: % ILS (%)
Give just the number in %; leave the unit off.

// fetch % ILS for CCN(CC)C1=CC(=O)C(=O)C=C1N(CC)CC ; system: L1210 leukemia 14

// fetch % ILS for O=C1C=C(N2CCC2)C(N2CCC2)=CC1=O ; system: L1210 leukemia 5

// fetch % ILS for O=C1C=C(N2CCCC2)C(N2CCCC2)=CC1=O ; system: L1210 leukemia 8
